Each item that follows carries a reported max Ca2+ signal, COS-7, FLIPR; 100 µM dopamine.
Target: human dopamine D1 receptor (human, UniProt P21728 1-446)
Sequence (P21728 whole entry): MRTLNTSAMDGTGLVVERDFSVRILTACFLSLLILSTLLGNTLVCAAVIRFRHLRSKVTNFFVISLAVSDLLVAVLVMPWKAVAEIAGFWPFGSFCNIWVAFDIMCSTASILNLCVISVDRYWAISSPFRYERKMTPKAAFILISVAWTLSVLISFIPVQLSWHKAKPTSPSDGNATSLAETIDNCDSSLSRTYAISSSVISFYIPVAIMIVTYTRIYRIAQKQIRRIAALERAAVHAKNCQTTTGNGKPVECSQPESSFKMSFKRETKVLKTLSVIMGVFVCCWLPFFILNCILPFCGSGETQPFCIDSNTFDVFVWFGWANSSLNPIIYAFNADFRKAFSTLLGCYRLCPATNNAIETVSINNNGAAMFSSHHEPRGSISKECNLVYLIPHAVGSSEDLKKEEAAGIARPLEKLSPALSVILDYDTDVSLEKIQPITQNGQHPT
Test: cell-based or functional assay
Write the answer as a number in fluorescence units, unit excluded.

Example entries begin here.
BINDER: D. melanogaster Gαq/z5 (other) MECCLSEEAKEQKRINQEIEKQLRRDKRDARRELKLLLLGTGESGKSTFIKQMRIIHGSGYSDEDKRGYIKLVFQNIFMAMQSMIKAMDMLKISYGQGEHSELADLVMSIDYETVTTFEDPYLNAIKTLWDDAGIQECYDRRREYQLTDSAKYYLKDLDRVAQPAYLPTEQDILRVRVPTTGIIEYPFDLEEIRFRMVDVGGQRSERRKWIHCFENVTSIIFLVALSEYDQILFESDNENRMEESKALFRTIITYPWFQNSSVILFLNKKDLLEEKIMYSHLVDYFPEYDGPQRDAITAREFILRMFVDLNPDSEKIIYSHFTCATDTENIRFVFAAVKDTILQSNLKYIGLC
MEASURED NUMBER: 2150
//
BINDER: Human Gαq/z5 (identical to Accession number L76256) (other) MTLESIMACCLSEEAKEARRINDEIERQLRRDKRDARRELKLLLLGTGESGKSTFIKQMRIIHGSGYSDEDKRGFTKLVYQNIFTAMQAMIRAMDTLKIPYKYEHNKAHAQLVREVDVEKVSAFENPYVDAIKSLWNDPGIQECYDRRREYQLSDSTKYYLNDLDRVADPAYLPTQQDVLRVRVPTTGIIEYPFDLQSVIFRMVDVGGQRSERRKWIHCFENVTSIMFLVALSEYDQVLVESDNENRMEESKALFRTIITYPWFQNSSVILFLNKKDLLEEKIMYSHLVDYFPEYDGPQRDAQAAREFILKMFVDLNPDSDKIIYSHFTCATDTENIRFVFAAVKDTILQLNLKYIGLC
MEASURED NUMBER: 0

Quick note, max Ca2+ signal, COS-7, FLIPR; 100 µM dopamine for C. elegans Gαq/z5 (other) MACCLSEEAREQKRINQEIEKQLQRDKRNARRELKLLLLGTGESGKSTFIKQMRIIHGQGYSEEDKRAHIRLVYQNVFMAIQSMIRAMDTLDIKFGNESEELQEKAAVVREVDFESVTSFEEPYVSYIKELWEDSGIQECYDRRREYQLTDSAKYYLSDLRRLAVPDYLPTEQDILRVRVPTTGIIEYPFDLEQIIFRMVDVGGQRSERRKWIHCFENVTSIMFLVALSEYDQVLVECDNENRMEESKALFRTIITYPWFTNSSVILFLNKKDLLEEKILYSHLADYFPEYDGPPRDPIAAREFILKMFVDLNPDADKIIYSHFTCATDTENIRFVFAAVKDTILQHNLKYIGLC landed at 4830
